# MEASURED_ON: Recombinant human LTC4 synthase (Homo sapiens, UniProt Q16873)
# Construct: made in house; host or cells: Pichia pastoris
# Sequence (Q16873 whole entry): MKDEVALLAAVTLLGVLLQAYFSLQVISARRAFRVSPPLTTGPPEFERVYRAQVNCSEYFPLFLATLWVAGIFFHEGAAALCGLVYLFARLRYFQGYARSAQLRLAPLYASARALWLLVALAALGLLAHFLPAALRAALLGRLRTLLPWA
# ASSAY_NAME: In vitro LTC4 synthase assay (LTA4 to LTC4, HTRF detection)
# Format: biochemical
# STATED_CONDITIONS: title compounds of the Examples
# Procedure: In the assay, LTC4 synthase catalyses the reaction where the substrate LTA4 is converted to LTC4. Recombinant human LTC4 synthase is expressed in Piccia pastoralis and the purified enzyme is dissolved in 25 mM tris-buffer pH 7.8 supplemented with 0.1 mM glutathione (GSH) and stored at −80° C. The assay is performed in phosphate buffered saline (PBS) pH 7.4 and 5 mM GSH in 384-well plates. […] 1. […] 10 μL of the incubation mixture is analysed using homogenous time resolved fluorescent (HTRF) detection.
IC50 less than 70 nM is criterion met; IC50 greater than or equal to 70 nM is criterion not met.

Below 70 nM on IC50? Entry CN(c1ccc(Cl)cc1)c1ccc(C(=O)c2ccc(Sc3cccc(Cl)c3)c(C(=O)O)c2)cc1 [Example 2:2]
criterion not met

Below 70 nM on IC50? Entry CCCCCC[S+]([O-])c1ccc(C(=O)c2ccc(N(CC3CC3)c3ccc(Cl)cc3)cn2)cc1C(=O)O (stereo not shown) [1:16]
criterion met

Below 70 nM on IC50? Entry O=C(c1ccc(Sc2cccc(Cl)c2)c(C(=O)O)c1)c1ccc(N(CC2CC2)c2ccc(Cl)cc2)cn1 [2:18]
criterion met

Below 70 nM on IC50? Entry CN(c1ccc(Cl)cc1)c1ccc(C(=O)c2ccc([S+]([O-])c3ccccc3)c(C(=O)O)c2)cc1 (stereo not shown) [1:8]
criterion not met

Below 70 nM on IC50? Entry CN(c1ccc(Cl)cc1)c1ccc(C(=O)c2ccc(Sc3ccc(F)c(F)c3)c(C(=O)O)c2)nc1 [2:6]
criterion met

Below 70 nM on IC50? Entry CCCC[S+]([O-])c1ccc(C(=O)c2ccc(N(C)c3ccc(Cl)cc3)cc2)cc1C(=O)O (stereo not shown) [1:7]
criterion not met

Below 70 nM on IC50? Entry CCCCCC[S+]([O-])c1ccc(C(=O)c2ccc(N(CC3CC3)c3ccc(Cl)cc3)cc2)cc1C(=O)O (stereo not shown) [Example 1:12]
criterion met

Below 70 nM on IC50? Entry O=C(c1ccc([S+]([O-])c2ccc(C(F)(F)F)cc2)c(C(=O)O)c1)c1ccc(N(CC2CC2)c2ccc(Cl)cc2)cn1 (stereo not shown) [Example 1:14]
criterion met

Below 70 nM on IC50? Entry CN(c1ccc(Cl)cc1)c1ccc(C(=O)c2cc(Sc3ccc(F)c(F)c3)cc(C(=O)O)c2)cc1 [2:29]
criterion not met

Below 70 nM on IC50? Entry CCCCCC[S+]([O-])c1ccc(C(=O)c2ncc(N(C)c3ccc(Cl)cc3)cn2)cc1C(=O)O (stereo not shown) [Example 1:21]
criterion met

Below 70 nM on IC50? Entry O=C(c1ccc(Sc2ccccc2)c(C(=O)O)c1)c1ccc(N(CC2CC2)c2ccc(Cl)cc2)cn1 [2:14]
criterion met

Below 70 nM on IC50? Entry O=C(c1ccc(N(CC2CC2)c2ccc(Cl)cc2)cc1)c1ccc(Sc2ccccc2)c(C(=O)O)c1 [2:8]
criterion not met

Below 70 nM on IC50? Entry CCCCCCSc1ccc(C(=O)c2ccc(N(C)c3ccc(Cl)cc3)cn2)cc1C(=O)O [2:5]
criterion not met

Below 70 nM on IC50? Entry CN(c1ccc(Cl)cc1)c1ccc(C(=O)c2cc(Sc3cccc(Cl)c3)cc(C(=O)O)c2)cc1 [2:26]
criterion not met

Below 70 nM on IC50? Entry COc1ccc(Sc2ccc(C(=O)c3ccc(N(CC4CC4)c4ccc(Cl)cc4)cn3)cc2C(=O)O)cc1 [2:20]
criterion not met

Below 70 nM on IC50? Entry CN(c1ccc(Cl)cc1)c1ccc(C(=O)c2cc(C(=O)O)cc([S+]([O-])c3ccc(F)c(F)c3)c2)cc1 (stereo not shown) [Example 1:19]
criterion not met
